Give measured growth for each item. Keep answers brief.
tested on: KM12 colon; assay: NCI-60 one-dose screen, 48 h (100 = growth as untreated, 0 = no growth, -100 = all killed); conditions: 10 µM
This is part of a sample that, as a whole, favours compounds with a hit. Of some 83,000 tested, about 20% had one in any assay.
Numbers only, in %.

Please review the following examples before continuing.
{"Compound": "Cc1n[nH]c(C)c1N=Nc1cccc2c1C(=O)c1ccccc1C2=O", "Test target": "KM12 colon", "growth, %": 99.5}
{"Compound": "Cc1ccc(NCCN(C)CC(C)O)c2c(=O)c3ccccc3sc12 (configuration not stated)", "Test target": "KM12 colon", "growth, %": 44.9}
{"Compound": "CCNc1nc(C(F)(F)F)nc2c1sc(=S)n2-c1ccccc1", "Test target": "KM12 colon", "growth, %": 89.2}
{"Compound": "Cc1cc(Br)nnc1Br", "Test target": "KM12 colon", "growth, %": 96.6}
{"Compound": "COc1cc(C(=O)n2nc(-c3cc(OC)c(OC)c(OC)c3)nc2N)cc(OC)c1OC", "Test target": "KM12 colon", "growth, %": 102}
{"Compound": "Nc1cc(-c2ccncc2)c[nH]c1=O", "Test target": "KM12 colon", "growth, %": 104}

From here, focus on the item given below.
Query: // lookup growth for `CC(C)(C)c1nn(-c2ccccc2)c2c1CC1(CN2Cc2ccc(Cl)cc2)C(=O)c2ccccc2C1=O`
Reply: 89.6

---

system: NCI-H522 lung; test: NCI-60 one-dose screen, 48 h; settings: 10 µM
Compounds without any hit were thinned out: in the full panel of roughly 83,000, 20% have a hit. Calls of active or inactive are those of the source. Rule for the calls: active = growth percent below 10; inactive = the rest.
Hello, when you answer, please use one of the following outcomes: active, inactive

{"Compound": "O=C1CC(SC(=S)C2CCCC2=O)C(=O)N1 (stereo unspecified)", "Test target": "NCI-H522 lung", "Assigned class": "inactive"}
{"Compound": "O=C(COc1cccc(/C=C2\\CSc3ccccc3C2=O)c1)c1ccc(Cl)cc1", "Test target": "NCI-H522 lung", "Assigned class": "active"}
{"Compound": "COc1ccc(C(=O)c2ccccc2CN2C(=O)c3ccccc3C2=O)cc1", "Test target": "NCI-H522 lung", "Assigned class": "inactive"}
{"Compound": "COc1ccc(C2CC(c3cc(OC)c(OC)c(OC)c3)=NN2)cc1 (stereo unspecified)", "Test target": "NCI-H522 lung", "Assigned class": "inactive"}
{"Compound": "CCOC(=O)CN(c1sc(C)c(C)c1C(=O)OCC)S(=O)(=O)c1ccc(C)cc1", "Test target": "NCI-H522 lung", "Assigned class": "inactive"}
{"Compound": "O=C(CCCCC(=O)Oc1c(Cl)cc(Cl)cc1[N+](=O)[O-])Oc1c(Cl)cc(Cl)cc1[N+](=O)[O-]", "Test target": "NCI-H522 lung", "Assigned class": "inactive"}
{"Compound": "CC(=O)C1N=NCC1c1ccccc1 (stereo unspecified)", "Test target": "NCI-H522 lung", "Assigned class": "inactive"}
{"Compound": "Cc1ccc2nc(Cl)c(-c3nc4ccccc4o3)cc2c1", "Test target": "NCI-H522 lung", "Assigned class": "inactive"}

Query: For `Cc1nn(-c2ccc(-c3ccc(OC(F)(F)F)cc3)cc2)c2nc(Cc3ccccc3)nc(N)c12` , which call appears in the assay record?
Reply: inactive

Query: For `O=C(/C=C/C=C/c1c(C2CC2)nc2ccccc2c1-c1ccc(F)cc1)c1cccs1` , which call appears in the assay record?
Reply: active

Query: For `COc1cc(-c2nn(-c3ccc(NC(=O)NCCNS(=O)(=O)c4ccc(F)cc4)cc3)cc2-c2ccncc2)ccc1Cl` , which call appears in the assay record?
Reply: active

---

tested on: HOP-92 NSCLC; experiment: NCI-60 one-dose screen, 48 h (100 = growth as untreated, 0 = no growth, -100 = all killed); settings: 10 µM
About 83,000 compounds went through this panel and 20% of them were active in at least one assay; those are over-represented in the sample as a whole. Calls of active or inactive are those of the source. The calls were made as follows: active = growth percent below 10; inactive = the rest.
Measured parameter: growth

Please review the following examples before continuing.
{"Compound": "O=C(N/N=C/c1ccc(Cl)cc1)c1ccccc1Nc1cccc(C(F)(F)F)c1", "Test target": "HOP-92 NSCLC", "growth": "73.7% (inactive)"}
{"Compound": "Cc1cc(CC(C)CC(C)(C)C)n(O)c(=O)c1 (stereo not given) (tested in a mixture with another compound)", "Test target": "HOP-92 NSCLC", "growth": "73.6% (inactive)"}
{"Compound": "CCN(CC)CCCOc1cccc2c1C(=O)c1cccc(OCCCN(CC)CC)c1C2=O", "Test target": "HOP-92 NSCLC", "growth": "21.2% (inactive)"}
{"Compound": "O=C1/C(=C/c2cccc(F)c2)Cc2ccccc21", "Test target": "HOP-92 NSCLC", "growth": "73.5% (inactive)"}

From here, focus on the item given below.
Query: // map `CCOc1ccccc1/C=N\N=C(\N)N/N=C/c1ccccc1OCC` to recorded growth (system: HOP-92 NSCLC)
Reply: 46.5% (inactive)

---

test system: SW-620 colon; assay: NCI-60 one-dose screen, 48 h; conditions: 10 µM
Compounds without any hit were thinned out: in the full panel of roughly 83,000, 20% have a hit. Calls of active or inactive are those of the source. How the source made its calls: active means growth percent below 10; inactive means the rest.
Hello, when you answer, please use one of the following outcomes: Y for active, N for inactive

{"Compound": "CCN(CC)c1ccc(/C=C2\\SC(=O)C(Nc3nnc(-c4cccnc4SCc4ccccc4)o3)C2=O)cc1 (stereo not given)", "Assigned class": "N"}
{"Compound": "CN1CCN(C2=Nc3ccccc3Oc3ccc(Cl)cc32)CC1", "Assigned class": "N"}
{"Compound": "O=C(COc1cccc(/C=C2\\CSc3ccc(Cl)cc3C2=O)c1)c1ccc(Cl)cc1", "Assigned class": "Y"}
{"Compound": "COc1ccc(/C=c2\\sc3n(c2=O)C(c2cc(OC)c(OC)c(OC)c2)C=C(c2ccc(OC)c(OC)c2)N=3)cc1OC (stereo not given)", "Assigned class": "N"}
{"Compound": "COc1ccc2c(c1)OC(N)=C(C#N)C2c1cc(OC)c(OC)c(OC)c1 (stereo not given)", "Assigned class": "N"}

Query: For `CN(C)c1ccc(/C=N/NC(=O)c2ccccc2Nc2cccc(C(F)(F)F)c2)cc1` , which call appears in the assay record?
Reply: N

Query: For `COc1ccc2cc(-c3nc4ccccc4s3)c(Cl)nc2c1OC` , which call appears in the assay record?
Reply: N

Query: For `Nc1nccc(OCCO)n1` , which call appears in the assay record?
Reply: N

Query: For `COc1ccc(Cl)cc1Nc1nc(C(F)(F)F)ccc1C(=O)N/N=C/c1ccc(Cl)cc1` , which call appears in the assay record?
Reply: N

---

Give measured growth for each item. Keep answers brief.
test system: SF-539 CNS; test: NCI-60 one-dose screen, 48 h (100 = growth as untreated, 0 = no growth, -100 = all killed); conditions: 10 µM
About 83,000 compounds went through this panel and 20% of them were active in at least one assay; those are over-represented in the sample as a whole.
Answers are plain numbers, in %.

{"Molecule": "O=C1c2c(c(=O)[nH]c3ccccc23)CCN1Cc1ccccc1", "Test target": "SF-539 CNS", "Meas value": 90.4}
{"Molecule": "CC(=O)Nc1ccc(CC[C@H]2CCC/C=C/[C@@H]3C[C@H](O)C[C@H]3[C@H](O)/C=C/C(=O)O2)cc1", "Test target": "SF-539 CNS", "Meas value": 25.3}

Record growth for all entries; do not skip any.
1. O=C1/C(=C/c2ccc3c(c2)OCO3)SC(=S)N1C1c2ccccc2Oc2ccccc21
2. COc1cccc(CNc2cccc3cn[nH]c23)c1O
3. S=C(SSC(=S)N(c1ccccc1)c1ccccc1)N(c1ccccc1)c1ccccc1

Reply:
1. 94.3
2. 94.7
3. 109

---

system: EKVX NSCLC; experiment: NCI-60 one-dose screen, 48 h (100 = growth as untreated, 0 = no growth, -100 = all killed); details: 10 µM
This is part of a sample that, as a whole, favours compounds with a hit. Of some 83,000 tested, about 20% had one in any assay.
Give measured growth for each item. Keep answers brief.
One number for each entry, in %.

Please review the following examples before continuing.
{"Compound": "O=S(=O)(O)c1cccc(Nc2ccc3ccccc3c2)c1", "Test target": "EKVX NSCLC", "Measured parameter": "growth", "Unit name": "%", "Meas value": 105}
{"Compound": "O=C(NCCCNS(=O)(=O)c1ccc(Cl)cc1)Nc1ccc(-n2cc(-c3ccncc3)c(-c3ccc(Cl)c(O)c3)n2)cc1", "Test target": "EKVX NSCLC", "Measured parameter": "growth", "Unit name": "%", "Meas value": 61.7}
{"Compound": "CC(C)(C)OC(=O)N1CCc2c(sc3ncnc(N/N=C/c4cccc(Br)c4)c23)C1", "Test target": "EKVX NSCLC", "Measured parameter": "growth", "Unit name": "%", "Meas value": 26.3}
{"Compound": "COc1cc(-c2csc(NC(=O)Nc3ccc(Cl)c(C(F)(F)F)c3)n2)cc(OC)c1OC", "Test target": "EKVX NSCLC", "Measured parameter": "growth", "Unit name": "%", "Meas value": 2.12}

Record growth for all entries; do not skip any.
1. CN(C)CCCOc1ccccc1NC1=C(Cl)C(=O)C(Nc2ccccc2OCCCN(C)C)=C(Cl)C1=O
2. CCN(CC)CCN1c2nc3ccccc3cc2Sc2cc3ccccc3nc21
3. O=C(Nc1cccc2c1CCCC2)c1cc2ccccc2cc1O
4. N#Cc1ccc(C(=O)CSc2nccc(Nc3ccc(C(=O)O)cc3)n2)cc1
5. COc1cc(CNC(=O)C2CSC3(C)c4ccccc4C(=O)N23)cc(OC)c1OC (configuration not stated)

Reply:
-82
-3.38
59.8
108
108

Record growth for all entries; do not skip any.
1. CCOC(=O)c1sc2ncnc(Nc3ccc4c(cnn4C(=O)Nc4ccc(C)c(Cl)c4)c3)c2c1C
2. COc1ccc2c(c1)C(CC(=O)NN)CCC2 (configuration not stated)
3. CN(C)CCCN1c2ccccc2CCc2ccc(Cl)cc21

Reply:
1: 97.6; 2: 109; 3: 70.5
